Would you mind telling me the reported HitlevelM of each entry?
# Tested on: P. falciparum male gametocytes
# TEST DESCRIPTION: P. falciparum Dual Gamete Formation Assay (PfDGFA), male readout (exflagellation)
# Assay type: cell-based, Plasmodium falciparum NF54
# CONDITION NOTES: 2µM, 24h preincubation; hits selected on >50% inhibition in the male readout across replicates
Answers are plain numbers.

CCc1nc(N)nc(N)c1-c1cccc(Cl)c1 : 0

Field: HitlevelM. Fill in for each record below.
1. CN(CCN)Cc1ccc(-c2ccc(-c3nc4cc(C(F)(F)F)ccc4[nH]3)s2)cc1.O=C(O)C(F)(F)F
2. O=C(O)C(F)(F)F.O=[N+]([O-])c1cccc(CNCC2CCN(Cc3ccc(-c4ccccc4)cc3)CC2)c1
3. CCc1ccc(N2C(N)=NC(N)=NC2(C)C)cc1.Cl
4. CN1CCC(NCc2ccc(-c3cccc(S(=O)(=O)NCc4ccccc4)c3)cc2)CC1.O=C(O)C(F)(F)F
5. N=C(N)Nc1nc(-c2cccc(NC(=O)NCCc3c[nH]c4ccc(OCc5ccccc5)cc34)c2)cs1
6. Nc1nc(N)c2c(ccc3nn(C4CCCC4)cc32)n1
7. Cc1cc(-c2cccc(CNC3CCN(C)CC3)c2)ccc1S(=O)(=O)NCc1ccccc1.O=C(O)C(F)(F)F
8. NCCCNc1nccc(N2CCc3ncnc(Nc4ccc(OCc5cccc(F)c5)c(Cl)c4)c3C2)n1

1. 0
2. 2
3. 0
4. 1
5. 0
6. 0
7. 2
8. 0

Source: paper PMC10584170
